src = patent US20230398130A1

- System: ISC-enriched organoids
- measurement.description: Primary screen, 384-well 2.5-D organoid differentiation (ENR+CD, 6 days, Target Selective Inhibitor Library, vs whole-plate median): ATP (CellTiter-Glo 3D, CTG)
- setup.conditions: dose 0.40 uM; vs plate median
Classify: yes when Dose.FC.CTG (log 2 fold change, ATP) is strictly less than 0.1; no when Dose.FC.CTG (log 2 fold change, ATP) is not.

compound="CCO.N#CC(=C(/N)Sc1ccccc1N)/C(C#N)=C(\\N)Sc1ccccc1N [U0126-EtOH]" qualitative_label=yes
compound="O=C(c1cncc(Br)c1)N1CCC(N2CCCC2)CC1 [UNC669]" qualitative_label=yes
compound="CCC(=O)Nc1cccc(Oc2nc(Nc3ccc(N4CCN(C)CC4)cc3OC)ncc2Cl)c1 [WZ4003]" qualitative_label=no

*Q* Please check: Dose.FC.CTG (log 2 fold change, ATP) for Cl.Cl.Cl.O[C@@H](COc1cccc2ncccc12)CN1CCN([C@@H]2c3ccccc3[C@@H]3[C@H](c4ccccc42)C3(F)F)CC1 [Zosuquidar (LY335979) 3HCl] , strictly under 0.1 or not?
*A* no

*Q* hey, is Dose.FC.CTG (log 2 fold change, ATP) for C[C@@H]1CCN(C(=O)CC#N)C[C@@H]1N(C)c1ncnc2[nH]ccc12 [Tofacitinib (CP-690550, Tasocitinib)] lower than 0.1 or not?
*A* no

*Q* Determine whether this compound shows Dose.FC.CTG (log 2 fold change, ATP) lower than 0.1 (ties excluded): CS(=O)(=O)c1ccc(-c2cnc(N)c(C(=O)Nc3ccccc3)n2)cc1 [VE-821]
*A* no

*Q* Just wondering, is Dose.FC.CTG (log 2 fold change, ATP) of N#C[C@@H]1CCCN1C(=O)CNC12CC3CC(CC(O)(C3)C1)C2 [Vildagliptin (LAF-237)] below 0.1?
*A* no

*Q* API: query returns whether the compound falls strictly under 0.1 in Dose.FC.CTG (log 2 fold change, ATP). Query: Nc1cccc(-c2cc3c(Oc4cccc(O)c4)ncnc3[nH]2)c1 [TWS119]
*A* no

*Q* In plain terms, does CCCCNc1ncc(-c2ccc(CN3CCOCC3)cn2)c(NC2CCC(O)CC2)n1 (stereo not drawn) [UNC2250] come in under 0.1 for Dose.FC.CTG (log 2 fold change, ATP)?
*A* no

*Q* Does Cl.N[C@@H]1C[C@H]1c1ccccc1 (racemic) [Tranylcypromine (2-PCPA) HCl] have Dose.FC.CTG (log 2 fold change, ATP) strictly under 0.1?
*A* yes

*Q* Take the compound Cc1cc(-c2ccc(CC(=O)Nc3ccc(-c4cccnc4)cc3)cc2)ccn1 [Wnt-C59 (C59)] and say whether its Dose.FC.CTG (log 2 fold change, ATP) is less than 0.1.
*A* yes

*Q* Dear colleague, could you confirm whether Dose.FC.CTG (log 2 fold change, ATP) of COc1cc2ncnc(Nc3ccc(Cl)cc3F)c2cc1OC [ZM 306416] falls below 0.1? Thanks.
*A* yes

----------
- Test system: ISC-enriched organoids
- measurement.description: Primary screen, 384-well 2.5-D organoid differentiation (ENR+CD, 6 days, Target Selective Inhibitor Library, vs whole-plate median): ATP (CellTiter-Glo 3D, CTG)
- setup.conditions: Dose 10.00 uM; standard z score of FC
readout: Z.CTG
Number, no unit, nothing else.

Some solved entries appear below for comparison.
molecule="CN1C(=O)C(Cc2c[nH]c3ccccc23)NC1=S (stereo not drawn)" target_or_system="ISC-enriched organoids" test_result=0.328
molecule=Cc1[nH]c2ccccc2c1CCNC(=O)c1cccs1 target_or_system="ISC-enriched organoids" test_result=−0.404

// next entry
*Q* Entry under review: O=C(NC(NC(=S)Nc1ccc(F)c([N+](=O)[O-])c1)C(Cl)(Cl)Cl)C(c1ccccc1)c1ccccc1 (stereo not drawn) . Reported Z.CTG?
*A* −1.143

----------
Entries and their measured Z.CTG (standard z score) follow.
- Tested on: ISC-enriched organoids
- measurement.description: Primary screen, 384-well 2.5-D organoid differentiation (ENR+CD, 6 days, Target Selective Inhibitor Library, vs whole-plate median): ATP (CellTiter-Glo 3D, CTG)
- setup.conditions: Dose 10.00 uM; primary screen
Give the value as a plain number.

*Q* Would you mind telling me what Z.CTG (standard z score) value was observed for Cc1nn(-c2ccccc2)c(C)c1/C=N/N1CCN(Cc2ccccc2)CC1 ?
*A* −0.100

*Q* Consider the compound Oc1ccc(Nc2nc(-c3ccc(Cl)cc3)cs2)cc1 and give its measured Z.CTG (standard z score).
*A* −0.802

*Q* Given the compound COc1cc2c(N3CCN(C(=O)Nc4ccc(OC(C)C)cc4)CC3)ncnc2cc1OCCCN1CCCCC1 , what is its reported Z.CTG (standard z score)?
*A* 1.401

*Q* I'd like to know its Z.CTG (standard z score). The compound in question is CNC(=O)c1ccccc1Nc1nc(Nc2ccc(N3CCOCC3)cc2OC)ncc1Cl
*A* −2.363

*Q* Which value of Z.CTG (standard z score) has been reported for COc1cc2c(cc1OC)[C@@H]1Cc3ccc(OC)c(OC)c3CN1CC2 in the records?
*A* 0.543

*Q* Find the recorded Z.CTG (standard z score) belonging to N#CSc1cc(SC#N)c(N)nc1N and report it.
*A* −0.764

*Q* Sample CNC(=O)c1ccc2cc([C@@]3(O)CCn4cncc43)ccc2c1 — what was its Z.CTG (standard z score)?
*A* 0.219

*Q* Recorded Z.CTG (standard z score) for O=C(Nc1ccncc1)c1cc([N+](=O)[O-])ccc1Cl , please?
*A* −1.806

*Q* If you can, please state the reported Z.CTG (standard z score) value of O=S(=O)(c1ccccc1)N(CC(F)(F)F)c1ccc(C(O)(C(F)(F)F)C(F)(F)F)cc1 .
*A* 0.272

----------
- System: ISC-enriched organoids
- measurement.description: Primary screen, 384-well 2.5-D organoid differentiation (ENR+CD, 6 days, Target Selective Inhibitor Library, vs whole-plate median): ATP (CellTiter-Glo 3D, CTG)
- setup.conditions: primary screen, dose 2.00 uM, ENR+CD 6 days, FC vs plate median
Would you mind sorting the entries by Dose.FC.CTG according to these classes? low end = under -0.3 log 2 fold change, middle = from -0.3 log 2 fold change up to 0.005 log 2 fold change, high end = 0.005 log 2 fold change and over

compound="CC(C)c1c(C(=O)Nc2ccccc2)c(-c2ccccc2)c(-c2ccc(F)cc2)n1CC[C@@H](O)C[C@@H](O)CC(=O)[O-].CC(C)c1c(C(=O)Nc2ccccc2)c(-c2ccccc2)c(-c2ccc(F)cc2)n1CC[C@@H](O)C[C@@H](O)CC(=O)[O-].[Ca+2] [Atorvastatin Calcium]" qualitative_label="low end"

*Q* Please report the category associated with Cc1cc([C@@H](C)Nc2ccccc2C(=O)O)c2nc(N3CCOCC3)cc(=O)n2c1 [AZD6482] , nothing else.
*A* low end

*Q* Textbook exercise: identify the category of the compound given here, COc1cc(F)c(C(C)C)cc1-c1ccc(C(F)(F)F)cc1CN1C(=O)O[C@H](c2cc(C(F)(F)F)cc(C(F)(F)F)c2)[C@@H]1C [Anacetrapib (MK-0859)] , according to its measured value.
*A* middle

*Q* Dear colleague, I would appreciate it if you could identify the bin for CC(C)N(CC[C@H](c1ccccc1)c1cc(CO)ccc1O)C(C)C [5-hydroxymethyl Tolterodine (PNU 200577, 5-HMT, 5-HM)] and reply at your convenience.
*A* high end

*Q* Band of O=C(O)c1ccc(N2C(=O)/C(=C\c3ccc(-c4ccc([N+](=O)[O-])cc4)o3)C=C2c2ccccc2)cc1 [4E1RCat] ?
*A* high end

*Q* Determine which band this compound sits in: CCNC(=O)c1noc(-c2cc(C(C)C)c(O)cc2O)c1-c1ccc(CN2CCOCC2)cc1 [AUY922 (NVP-AUY922)]
*A* low end

*Q* Lab log: CN1CCCCC1Cn1cc(C(=O)c2cc([N+](=O)[O-])ccc2I)c2ccccc21 (centres unmarked) [AM1241] — assign Dose.FC.CTG category
*A* middle

*Q* Please let me know in which category the item O=C(O)C(Cc1ccccc1[N+](=O)[O-])=NNc1nc(-c2ccc(Cl)c(Cl)c2)cs1 (mixture of isomers) [4EGI-1] belongs.
*A* high end

----------
- Tested on: ISC-enriched organoids
- measurement.description: Primary screen, 384-well 2.5-D organoid differentiation (ENR+CD, 6 days): basal lysozyme secretion (LYZ.NS)
- Format: cell-based, murine
- setup.conditions: Dose 0.40 uM; ENR+CD, 6 days; FC vs plate median
readout: Dose.FC.LYZ.NS (log 2 fold change)
# value in log 2 fold change; strip the unit string

Field: example entries. Status: answers known.
compound=Nc1ncnc2n[nH]c(Nc3ccc(F)cc3)c12 readout=Dose.FC.LYZ.NS test_result=−0.041
compound=O=C(O)c1cc2cccc([N+](=O)[O-])c2[nH]1 readout=Dose.FC.LYZ.NS test_result=0.034
compound=Cc1[nH]c2ccccc2c1CCNC(=O)c1cccs1 readout=Dose.FC.LYZ.NS test_result=−0.049

Please turn your attention to the following entry.
*Q* Need Dose.FC.LYZ.NS of CNC(=O)c1ccc(N2C(=S)N(c3ccc(C#N)c(C(F)(F)F)c3)C(=O)C2(C)C)cc1F [Enzalutamide (MDV3100)] , thanks.
*A* 0.166
